- Run description: Terminal half life in Beagle dog at 1 umol/kg, iv and 2 umol/kg, po
- Assay type: ADME, organism-based, Canis lupus familiaris
- Test settings: in vivo, read-out: beta t1/2 (converted)
Outcome measure: half-life (min)
Numeric only. Scale: min

Look up half-life: CN1C(=O)CC[C@H]1CN(Cc1ccc(Cl)cc1)S(=O)(=O)c1cccc(C#N)c1
52.2

###

- Run description: Intrinsic clearance in human liver microsomes assessed per mg protein
- Assay type: ADME
- Test settings: read-out: CLH
Outcome measure: microsomal CLint (µL/min/mg)
Numeric only. Scale: µL/min/mg

Look up microsomal CLint: CN1C(=O)CC[C@H]1CN(Cc1ccc(Cl)cc1)S(=O)(=O)c1cccc(C#N)c1
116
